This collection of values is drawn from PubChem BioAssay (NCI).

Tested on: OVCAR-5 ovarian
Test: NCI-60 one-dose screen, 48 h (100 = growth as untreated, 0 = no growth, -100 = all killed)
Conditions: 10 µM
The panel holds about 83,000 compounds, 20% with a hit somewhere; the sample as a whole holds those more often.
Cut-off 90% on growth: below means Yes, at or above means No.

As a guide, the following entries are already answered.
| molecule | assay target | qualitative label |
| --- | --- | --- |
| O=C(CBr)Nc1ccc(Cl)cc1 | OVCAR-5 ovarian | Yes |
| CCOP(=O)(OCC)C(O)c1ccccc1Cl (stereo not drawn) | OVCAR-5 ovarian | Yes |
| O=C1C=Cc2ccccc2C1=O | OVCAR-5 ovarian | No |
| Cc1ccc(NC(=O)CBr)cc1 | OVCAR-5 ovarian | No |
| O=[P+](O)c1ccccc1 | OVCAR-5 ovarian | No |

Input COc1ccccc1/C=C/[N+](=O)[O-] ; condition: growth strictly below 90%. Does it hold?
Yes

Could you please tell me whether growth recorded for COC12C(COC(N)=O)C3=C(C(=O)C(C)=C(N)C3=O)N1CC1C2N1C (stereo not drawn) is less than 90%?
Yes
